# EXPERIMENT DESCRIPTION: in vivo
# CONDITION LABEL: Thoroughbred, horse, iv, 0.1 mg/kg
MEASURED QUANTITY: half-life (h)
Answers are plain numbers, in h.

-- ask Which half-life reading was recorded for the molecule O=C(Nc1ccc(OC(F)(F)F)cc1)N[C@H]1CC[C@H](Oc2ccc(C(=O)O)cc2)CC1 ?
-- reply 29.8

* * *

# MEASURED ON: Canine sEH (Canis lupus familiaris, UniProt A0A8I3NJL8)
# Sequence (A0A8I3NJL8 1-556): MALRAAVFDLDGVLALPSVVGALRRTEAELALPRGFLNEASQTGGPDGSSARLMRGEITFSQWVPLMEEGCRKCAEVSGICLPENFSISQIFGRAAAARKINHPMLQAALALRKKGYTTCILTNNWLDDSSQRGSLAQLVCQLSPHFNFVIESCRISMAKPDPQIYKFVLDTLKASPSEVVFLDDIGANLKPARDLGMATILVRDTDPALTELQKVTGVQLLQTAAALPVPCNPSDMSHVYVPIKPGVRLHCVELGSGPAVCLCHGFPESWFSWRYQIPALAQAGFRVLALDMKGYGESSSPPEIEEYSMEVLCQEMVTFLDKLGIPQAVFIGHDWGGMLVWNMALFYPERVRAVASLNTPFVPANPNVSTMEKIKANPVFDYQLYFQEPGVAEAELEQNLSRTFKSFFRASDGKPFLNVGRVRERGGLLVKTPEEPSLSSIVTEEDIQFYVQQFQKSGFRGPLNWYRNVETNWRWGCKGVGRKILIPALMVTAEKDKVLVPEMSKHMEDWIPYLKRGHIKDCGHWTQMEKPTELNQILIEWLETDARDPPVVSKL
# EXPERIMENT DESCRIPTION: sEH Inhibitor Screen of Canine sEH
# Format: biochemical
# CONDITION LABEL: [I] = 100 nM
MEASURED QUANTITY: inhibition at 0.1 µM
A bare number is not enough; add the unit after it.

INSERT INTO measurements (molecule, measured_quantity, result) VALUES
  ('O=C(Nc1ccc(OC(F)(F)F)cc1)N[C@H]1CC[C@H](Oc2ccc(-c3nnn[nH]3)cc2)CC1 [compound 2806]', 'inhibition at 0.1 µM', '99%'),
  ('O=C(O)CNC(=O)c1ccc(O[C@H]2CC[C@H](NC(=O)Nc3ccc(OC(F)(F)F)cc3)CC2)cc1 [compound 2283]', 'inhibition at 0.1 µM', '64%'),
  ('O=C(Nc1ccc(Oc2ccc(C(=O)O)cc2)cc1)Nc1ccc(OC(F)(F)F)cc1 [compound 2803]', 'inhibition at 0.1 µM', '82%'),
  ('O=C(Nc1ccc(OC(F)F)cc1)N[C@H]1CC[C@H](Oc2ccc(C(=O)O)cc2)CC1 [compound 2805]', 'inhibition at 0.1 µM', '95%'),
  ('O=C(Nc1ccccc1F)N[C@H]1CC[C@H](Oc2ccc(C(=O)O)cc2)CC1 [compound 2736]', 'inhibition at 0.1 µM', '80%');

Hey, quick one: what's inhibition at 0.1 µM for each of these?
1. O=C(Nc1ccc(OC(F)(F)F)cc1)N[C@H]1CC[C@H](Oc2ccc(C(=O)NO)cc2)CC1 [compound 2761]
2. O=C(Nc1ccc(OC(F)(F)F)cc1)NC1CCC(Oc2ncccn2)CC1 (stereo not drawn) [compound 2810]
3. Cc1oc(=O)oc1COC(=O)c1ccc(O[C@H]2CC[C@H](NC(=O)Nc3ccc(OC(F)(F)F)cc3)CC2)cc1 [compound 2796]

-- reply
["72%", "52%", "84%"]

# credit: patent US10383835B2
